- System: SNB-75
- PROTOCOL: NCI tumour cell line growth inhibition, 48 h
Active and inactive are the calls of the source. No stated cut-off is given here; in the data, active = GI50 up to about 1.1 µM and inactive = higher.
Classes used: active, inactive

| MOLECULE | CLASS_NAME |
| --- | --- |
| COc1cc(C2C(Cl)C(=O)N2c2ccc(Br)cc2)cc(I)c1O (stereo not given) | inactive |
| C[n+]1c2ccccc2n2c3ccccc3c(NCCCN3CCOCC3)c(C#N)c21 | inactive |
| CN1C=Cc2nccc3cc4c(c1c23)OCO4 | inactive |
| CCOC(=O)c1c(N2CCOCC2)[nH]c(=O)c(C(c2cccs2)c2c(O)c(C(=O)OCC)c(N3CCOCC3)[nH]c2=O)c1O | inactive |
| CC(=O)N(C(C)=O)n1c(Cc2ccc(Cl)cc2)nn(C(C)=O)c1=O | inactive |
| O=c1[nH]c2[nH]c(-c3ccc(Br)cc3)cc2c2ccccc12 | inactive |
| CN(CCN1C(=O)c2cc([N+](=O)[O-])cc3cc([N+](=O)[O-])cc(c23)C1=O)CCN1C(=O)c2cc([N+](=O)[O-])cc3cc([N+](=O)[O-])cc(c23)C1=O | active |
| O=C1NC(O)CCN1C1OC(CO)C(O)C1O (stereo not given) | inactive |
| CC(C)(C)NCCC(O)c1cc(C(F)(F)F)nc2c(C(F)(F)F)cccc12 (stereo not given) | inactive |
| C[N+](C)(C)CC(=O)NC(=O)N/N=C\C(CC#N)CN(Cc1ccccc1)Cc1ccccc1 (stereo not given) | inactive |

* * *

- Test system: SK-MEL-2
- PROTOCOL: NCI tumour cell line growth inhibition, 48 h
Active and inactive are the calls of the source. Rule as the data show it: active = GI50 up to about 1.1 µM and inactive = higher.
ENDPOINT_NAME: GI50

| COMPOUND | ENDPOINT_RESULT |
| --- | --- |
| Cc1cn([C@@H]2O[C@H](CO)[C@@H](O)[C@@H]2O)c(=O)[nH]c1=O | > 1000 µM (inactive) |
| O=C1[C@@H]2C3c4ccccc4C([C@@H]2C(=O)N1c1ccccc1)S3(=O)=O | > 100 µM (inactive) |
| C#CCCOC1(OC)N=NC(C)(C)O1 (stereo unspecified) | > 100 µM (inactive) |
| COCCOC(=O)NCn1cc(-c2ccccc2)nn1 | > 100 µM (inactive) |
| NC(=O)/N=C1/CCC2C3CCCC2C13 | 60.7 µM (inactive) |
| O=C(c1ccc(Cl)cc1)N(C(=S)OCCOc1ccccc1)c1ccccc1 | 22.1 µM (inactive) |
| CC(C)(C)C(=O)C(Cc1ccccc1)C(=O)C(C)(C)C | > 100 µM (inactive) |
| CCON=C1C(C)(C)C(C)(C)C(C)(C)C1(C)C | > 100 µM (inactive) |
| O=c1nc(NC2CCCCO2)ccn1CCO (stereo unspecified) | > 100 µM (inactive) |
| COc1ccc2c(c1)N=C1CSC(c3c(Cl)cccc3[N+](=O)[O-])N1C2 (stereo unspecified) | 35.4 µM (inactive) |
| Cc1c(N/C=C(\C#N)C(=O)c2ccc(Cl)cc2)c(=O)n(-c2ccccc2)n1C | 62.1 µM (inactive) |

* * *

- System: NCI-H23
- PROTOCOL: NCI tumour cell line growth inhibition, 48 h
Active and inactive are the calls of the source. No stated cut-off is given here; in the data, active = GI50 up to about 1.1 µM and inactive = higher.
GI50 values by entry

| COMPOUND | GI50 |
| --- | --- |
| C=CCN1C(=O)/C(=C/c2ccccc2)NC1=S | > 100 µM (inactive) |
| Brc1cccc(C2ON=C(c3ccccc3)N2C23CC4CC(CC(C4)C2)C3)c1 (stereo unspecified) | > 10 µM (inactive) |
| COC(=O)[C@@H]1C=C[C@H](OC2OC(COC(C)=O)C(OC(C)=O)C(OC(C)=O)C2OC(C)=O)n2c(=O)n(-c3ccccc3)c(=O)n21 (stereo partly specified) | 5.3 µM (inactive) |
| C[C@H]1S[C@@H](c2ccc(Cl)cc2Cl)N(NC(=O)c2ccncc2)C1=O | 50.4 µM (inactive) |
| CCc1n[nH]c(=O)n1/N=C/c1c(O)ccc2ccccc12 | > 100 µM (inactive) |
| OC(CC(O)(C(F)(F)F)C(F)(F)F)c1ccc(C(O)CC(O)(C(F)(F)F)C(F)(F)F)cc1 (stereo unspecified) | 12.9 µM (inactive) |

* * *

- Tested on: ACHN
- PROTOCOL: NCI tumour cell line growth inhibition, 48 h
Activity calls are given as the source filed them. No stated cut-off is given here; in the data, active = GI50 up to about 1.1 µM and inactive = higher.
Classes used: Yes for active, No for inactive

| COMPOUND | CLASS_NAME |
| --- | --- |
| Cn1cnc([N+](=O)[O-])c1[Se]c1nc(N)nc2c1ncn2C1OC(CO)C(O)C1O (stereo not drawn) | No |
| c1ccc2c(c1)Nc1c3ccccc3nc3cccc-2c13 | Yes |
| CN(C(=O)Cc1cc(Cl)c(Cl)cc1NC(=O)CN)[C@H]1CCCC[C@@H]1N1CCCC1 | No |
| Cc1ccc([S+](c2ccccc2)c2cc(C)ccc2C)cc1.O=C(OC(C(=O)[O-])C(OC(=O)c1ccccc1)C(=O)O)c1ccccc1 (stereo not drawn) | No |
| O=C1[C@@H]2C(c3ccccc3Br)=NO[C@@H]2C(=O)N1c1ccc(Cc2ccc(N3C(=O)[C@H]4C(c5ccccc5Br)=NO[C@H]4C3=O)cc2)cc1 | No |
| COc1cc2cc(C(=O)N3CC(CCl)c4ccc(NO)cc43)[nH]c2c(OC)c1OC (stereo not drawn) | Yes |
| COc1ccc2nc(NC(=O)C(=O)CC(=O)c3ccc([N+](=O)[O-])cc3)sc2c1 | No |
| COc1ccccc1CNC1=Nc2ccncc2S(=O)(=O)N1c1ccccc1 | No |
| O=C(/C=C1\NC(=O)c2ccccc2N1)c1ccncc1 | No |
| O=C1CCN2C(=N1)Sc1ccccc12 | No |
| O=c1nc(NC2CCCCO2)ccn1CCO (stereo not drawn) | No |
| O=Cc1c2c(cc3c1CC1(C3)Cc3cc4c(c(C=O)c3C1)CCC4)CCC2 | No |
| O=c1c2ncn(COCCCl)c2n(-c2ccccc2)c(=S)n1-c1ccccc1 | No |

* * *

- System: MDA-MB-231
- PROTOCOL: NCI tumour cell line growth inhibition, 48 h
Activity calls are given as the source filed them. Rule as the data show it: active = GI50 up to about 1.1 µM and inactive = higher.
Classes used: active, inactive

| COMPOUND | CLASS_NAME |
| --- | --- |
| CC(=N\c1ccncc1)/C(C)=N/c1ccncc1 | inactive |
| Cn1c2ccccc2c2cc(N3CCCC3)c3c(c21)C(=O)N(c1ccccc1)C3=O | inactive |
| COc1ccc(/C=C/C(=O)c2nc3ccccc3[nH]2)cc1 | inactive |
| CC(C)NC(=O)OCc1c(COC(=O)NC(C)C)c(-c2ccc[n+](COC(=O)C3CCCCC3)c2)n2c1CCC2 | inactive |
| COc1ccc(C=C2C(=O)NC(=S)NC2=O)c2ccccc12 | inactive |
| CC1C(=O)N=C2C(=CN(Cc3ccccc3)c3ccccc32)C(=O)N1C (stereo unspecified) | inactive |
| COC(=O)[C@@H](Cc1ccccc1)NNC(=O)OC(C)(C)C | inactive |
| CCN(CC)CC1CCCCN1CC(=O)N1c2ccccc2NC(=O)c2ccccc21 (stereo unspecified) | inactive |
| COP(=O)(OC)C(N)Cc1c[nH]c2ccccc12 (stereo unspecified) | inactive |
| COC(=O)/C=C\C(C#N)(C#N)/N=C/c1sccc1C | active |
| Cc1cccc(/C=N/NC(=S)N2CCCCCC2)n1 | active |

* * *

GI50 values by entry
- Tested on: NCI-H460
- PROTOCOL: NCI tumour cell line growth inhibition, 48 h
Activity calls are given as the source filed them. No stated cut-off is given here; in the data, active = GI50 up to about 1.1 µM and inactive = higher.
ENDPOINT_NAME: GI50

| MOLECULE | ENDPOINT_NAME | ENDPOINT_RESULT |
| --- | --- | --- |
| O=C1[C@@H]2C(c3ccccc3Br)=NO[C@@H]2C(=O)N1c1ccc(Cc2ccc(N3C(=O)[C@H]4C(c5ccccc5Br)=NO[C@H]4C3=O)cc2)cc1 | GI50 | > 100 µM (inactive) |
| O=c1[nH]c2[nH]c(-c3ccc(Br)cc3)cc2c2ccccc12 | GI50 | > 100 µM (inactive) |
| O=C1CCc2c(sc3ncnc(Nc4cccc(Br)c4)c23)C1 | GI50 | 3.99 µM (inactive) |
| CCCCCCCC(=O)NC(C)(C)C(=O)NCC(=O)NC(CC(C)C)C(=O)NC(C)(C)C(=O)NCC(=O)NCC(=O)NC(CC(C)C)C(=O)NC(C)(C)C(=O)NCC(=O)NC(C(=O)NC(CO)CC(C)C)C(C)CC (stereo not drawn) | GI50 | 4.48 µM (inactive) |
| COc1ccccc1CNC1=Nc2ccncc2S(=O)(=O)N1c1ccccc1 | GI50 | 60.4 µM (inactive) |
| COc1ccc(-c2nc(SCC(=O)N/N=C/c3ccc(N(C)C)cc3)[nH]c2-c2ccc(OC)cc2)cc1 | GI50 | 32.7 µM (inactive) |
| Nc1ccc2nc(Nc3ccc(F)cc3)cnc2c1 | GI50 | > 100 µM (inactive) |
| CCN(CC)c1ccc(/N=N/c2ccc(-c3nc4ccc[n+](C)c4o3)cc2)cc1 | GI50 | 12.6 µM (inactive) |
